Test: compound induced cellular toxicity in HepG2 cells (ATPlite 1Step)
Format: cell-based
Settings: human, three days, concentration reducing total ATP levels by 50% relative to no drug controls
OBSERVABLE: CC50 at 3 days

Sample answers from the record:
- MOLECULE: "CC(C)(C)[C@@H]1Cc2c(cc(-c3ccoc3)c3occc23)-c2cc(=O)c(C(=O)O)cn21 [Example 13]"
  ASSAY_VALUE: "10 to 25 µM"
- MOLECULE: "CC(C)(C)[C@@H]1Cc2c(cc(N3CCC(F)(F)C3)c3ccoc23)-c2cc(=O)c(C(=O)O)cn21 [Example 19]"
  ASSAY_VALUE: "10 to 25 µM"
- MOLECULE: "CC(C)(C)[C@@H]1Cc2c(cc(-c3ccn[nH]3)c3ccoc23)-c2cc(=O)c(C(=O)O)cn21 [Example 6]"
  ASSAY_VALUE: "10 to 25 µM"
- MOLECULE: "CC(C)(C)[C@@H]1Cc2c(cc(-c3cnsc3)c3ccoc23)-c2cc(=O)c(C(=O)O)cn21 [Example 11]"
  ASSAY_VALUE: "> 25 µM"
- MOLECULE: "CC(C)(C)[C@@H]1Cc2c(cc(-c3cscn3)c3ccoc23)-c2cc(=O)c(C(=O)O)cn21 [Example 17]"
  ASSAY_VALUE: "> 25 µM"

What does the data say about its CC50 at 3 days? Entry: Cn1nccc1-c1cc2c(c3occc13)C[C@@H](C(C)(C)C)n1cc(C(=O)O)c(=O)cc1-2 [Example 14]
> 25 µM

What does the data say about its CC50 at 3 days? Entry: Cn1cc(-c2cc3c(c4occc24)C[C@@H](C(C)(C)C)n2cc(C(=O)O)c(=O)cc2-3)cn1 [Example 15]
> 25 µM

What does the data say about its CC50 at 3 days? Entry: CC(C)(C)[C@@H]1Cc2c(cc(Cl)c3ccoc23)-c2cc(=O)c(C(=O)O)cn21 [Example 2]
> 25 µM

What does the data say about its CC50 at 3 days? Entry: CC(C)(C)[C@@H]1Cc2c(cc(-c3ccco3)c3ccoc23)-c2cc(=O)c(C(=O)O)cn21 [Example 8]
> 25 µM

What does the data say about its CC50 at 3 days? Entry: Cn1ccc(-c2cc3c(c4occc24)C[C@@H](C(C)(C)C)n2cc(C(=O)O)c(=O)cc2-3)n1 [Example 16]
10 to 25 µM

What does the data say about its CC50 at 3 days? Entry: CC(C)(C)[C@@H]1Cc2c(cc(-c3ccsc3)c3ccoc23)-c2cc(=O)c(C(=O)O)cn21 [Example 7]
10 to 25 µM

---

Assay: compound induced cellular toxicity in HepG2 cells (ATPlite 1Step)
Assay type: cell-based
Details: human, three days, concentration reducing total ATP levels by 50% relative to no drug controls
OBSERVABLE: CC50 at 3 days

- CHEMICAL_STRING: "CC(C)(C)[C@@H]1Cc2c(cc(-c3ccoc3)c3ccoc23)-c2cc(=O)c(C(=O)O)cn21"
  CC50 at 3 days: "> 25 µM"
- CHEMICAL_STRING: "CC(C)(C)[C@@H]1Cc2c(cc(-c3cccs3)c3ccoc23)-c2cc(=O)c(C(=O)O)cn21"
  CC50 at 3 days: "10 to 25 µM"
- CHEMICAL_STRING: "CC(C)(C)[C@@H]1Cc2c(cc(-c3cn[nH]c3)c3ccoc23)-c2cc(=O)c(C(=O)O)cn21"
  CC50 at 3 days: "> 25 µM"
- CHEMICAL_STRING: "CC(C)(C)[C@@H]1Cc2c(cc(N3CCCC3)c3ccoc23)-c2cc(=O)c(C(=O)O)cn21"
  CC50 at 3 days: "> 25 µM"
- CHEMICAL_STRING: "Cn1cc(-c2cc3c(c4ccoc24)C[C@@H](C(C)(C)C)n2cc(C(=O)O)c(=O)cc2-3)cn1"
  CC50 at 3 days: "> 25 µM"
- CHEMICAL_STRING: "CC(C)(C)[C@@H]1Cc2c(cc(Cl)c3occc23)-c2cc(=O)c(C(=O)O)cn21"
  CC50 at 3 days: "> 25 µM"

Below: the item to evaluate.
What does the data say about its CC50 at 3 days? Entry: `CC(C)(C)[C@@H]1Cc2c(cc(-c3cnco3)c3ccoc23)-c2cc(=O)c(C(=O)O)cn21`
> 25 µM
